molecular target: Streptavidin (Streptomyces avidinii) (UniProt P22629); assay: compounds binding control protein streptavidin – biophysical, small-molecule microarray, 635/667 nm fluorescence, artefact control for SMM compound annotation, primary screen (AID 1147); settings: higher = more signal;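 note: signal reflects streptavidin binding to arrayed compounds as a control protein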
Sequence (P22629 whole entry, looked up): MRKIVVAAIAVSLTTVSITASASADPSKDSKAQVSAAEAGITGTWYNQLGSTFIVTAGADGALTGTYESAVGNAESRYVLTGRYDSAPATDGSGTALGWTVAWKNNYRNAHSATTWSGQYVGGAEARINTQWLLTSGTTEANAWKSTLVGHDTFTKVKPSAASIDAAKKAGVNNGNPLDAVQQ
reported.metric: composite z-score
Returns: the value as a bare number; no unit string appended.

CCCCC(=C=CC[C@H](O)c1cccc(OCCO)c1)C[C@H](O)COCc1ccccc1; 0.206
COCCOC(=O)N1C(=O)[C@@]2(c3cc(C#CC4(O)CCCCCC4)ccc31)[C@H](C(=O)N1CCN(c3ncccn3)CC1)[C@H]1C(=O)O[C@H](c3ccccc3)[C@H](c3ccccc3)N1[C@@H]2c1ccc(O)cc1; -0.0314
[N-]=[N+]=Nc1ccccc1[C@H]1OC(c2ccc(OCCCO)cc2)=N[C@@]1(Cc1ccccc1)C(=O)NCc1ccccc1; 0.501
CC(C)c1ccc(NN2C(C(O)c3ccccn3)C=CC3C(=O)N(c4ccccc4)C(=O)C32)cc1 (stereo not drawn); 0.608
CN(C)C(=O)[C@@]1(CCC(=O)OC(C)(C)C)N=C(c2ccc(OCCCO)cc2)O[C@H]1c1ccccc1N=[N+]=[N-]; 1.6
COCCOC(=O)N1C(=O)[C@@]2(c3cc(C#CCCO)ccc31)[C@H](C(=O)N1CCc3cc(OC)c(OC)cc3C1)[C@H]1C(=O)O[C@H](c3ccccc3)[C@H](c3ccccc3)N1[C@@H]2c1ccc(OCCO)cc1; 0.675
NC(=O)NCC#Cc1ccc2c(c1)[C@]1(C(=O)N2)[C@H](c2ccc(O)cc2)N2[C@H](c3ccccc3)[C@H](c3ccccc3)OC(=O)[C@H]2[C@@H]1C(N)=O; -0.928
CC(C)c1ccc(NN2C(C(O)c3cccs3)C=CC3C(=O)N(c4ccccc4)C(=O)C32)cc1 (stereo not drawn); 1.78
CCCC=C(CCC)[C@@H](NS(=O)(=O)c1ccccc1)c1ccc(C(F)(F)F)cc1; 1.33
Cc1ccc(N2C(=O)c3ccccc3[C@](C)(C(=O)NC(C)C)[C@@H]2c2ccc(CO)cc2)nc1; -1.78

Supply composite z-score value. Item: "COc1ccc([Si](C)(C)[C@@H]2[C@@H](CCO)O[C@]3(C(=O)N(Cc4ccccc4)c4ccc(N5C(=O)COc6ccccc65)cc43)[C@H]2C)cc1"
0.104

Supply composite z-score value. Item: CCN(CC)c1ccc(N2CC=CC34O[C@@H]5/C=C\CCCOC(=O)C5[C@H]3C(=O)N(CCCCCO)[C@@H]4C2=O)cc1 (stereo partly drawn)
-1.45

Supply composite z-score value. Item: "COc1cccc(C[C@H]2C[C@@H](CO[Si](C(C)C)(C(C)C)C(C)C)N3C(=O)[C@]4(C(C)=O)O[C@]23[C@H]2C(=O)N(C)C(=O)[C@H]24)c1"
0.636

Supply composite z-score value. Item: "CCCNC(=O)[C@@]1(Sc2ccc(C)cc2)CC(=O)N(Cc2ccccc2)[C@@H]1c1ccc(CO)cc1I"
0.203

Supply composite z-score value. Item: "O=C1O[C@H](c2ccccc2)[C@H](c2ccccc2)N2[C@H]1[C@@H](C(=O)N1CCN(c3ncccn3)CC1)[C@]1(C(=O)Nc3ccc(C#CCCO)cc31)[C@H]2c1ccc(OCCO)cc1"
1.19

* * *

test: JC-1 mitochondrial potential readout, lung cancer cells – cell-based, A549, JC-1 fluorescence, basal, 24 h, 100 nL, profiling panel (AID 1138); settings: higher = more signal;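 note: A549 lung adenocarcinoma cells under basal conditions with no added stimulus; test concentration not given here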
z-score by entry:
Returns: the value as a bare number; no unit string appended.

Here's what some known entries look like.
COC(=O)C(CC#Cc1ccc2c(c1)[C@]1(C(=O)N2)[C@H](C(=O)N2CCc3cc(OC)c(OC)cc3C2)[C@H]2C(=O)O[C@H](c3ccccc3)[C@H](c3ccccc3)N2[C@@H]1c1ccc(O)cc1)C(=O)OC; -1.48
CC(C)CNC(=O)[C@@]1(c2ccc([N+](=O)[O-])cc2)CC(=O)N(C(C)C)[C@@H]1c1ccc(CO)cc1; -0.0836
C[N+](C)(C)CCCC[C@@H]1NC(=O)[C@H]2C[C@@H](C(=O)NCCCCCCN)[C@@H](c3cccc(OCCO)c3)N2C1=O; -0.798
O=C1c2ccccc2[C@](Cc2ccccc2I)(C(=O)NCC(F)(F)F)[C@H](c2ccc(CO)cc2)N1Cc1ccccc1; 0.71
CCOC(=O)C[C@H]1[C@H](OC(=O)Cc2ccc3c(c2)OCO3)[C@@H](NC(=O)c2ccccc2)c2cc(OCCCO)ccc2N1C(=O)c1ccc2ccccc2n1; 0.925

Supply z-score value. Item: CN1C(=O)C2C=CC(C(O)C3CCCCC3)N(N(c3ccccc3)c3ccccc3)C2C1=O (stereo not given)
0.131

Supply z-score value. Item: "C[C@@]1([C@@H](NC(=O)c2cccs2)c2ccc(-c3ccccc3)cc2)C[C@H]1C1CCCCC1"
-0.255

Supply z-score value. Item: "Cc1ccc(S[C@]2(C(=O)NCC(C)C)CC(=O)N(C3CCCCC3)[C@@H]2c2ccc(CO)cc2I)cc1"
1.28

Supply z-score value. Item: "COC(=O)[C@@]1(Cc2ccccc2N=[N+]=[N-])N=C(c2ccc(OCCCO)cc2)O[C@H]1c1ccccc1"
-1.26

Supply z-score value. Item: "COCCOC(=O)N1C(=O)[C@@]2(c3cc(C#Cc4ccc(OC)cc4)ccc31)[C@H](C(=O)N1CCc3cc(OC)c(OC)cc3C1)[C@H]1C(=O)O[C@H](c3ccccc3)[C@H](c3ccccc3)N1[C@@H]2c1ccc(OCCO)cc1"
-1.79

* * *

target: Torsin-1A-interacting protein 2 (Homo sapiens); assay: small molecules binding lysate-expressed LULL1 – cell lysate, human LULL1 lysate, 635/667 nm fluorescence, primary screen (AID 1092); conditions: small-molecule microarray, hLULL1 lysate binding, 635 nm fluorescence; higher = more signal;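 note: probe is lysate of COS7 cells overexpressing human LULL1; score merges per-feature 667 nm fluorescence with signal-to-noise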
composite z-score by entry:

C=CCOC(=O)[C@@H]1[C@H]2C(=O)O[C@H](c3ccccc3)[C@H](c3ccccc3)N2[C@H](c2ccc(OCCOC(=O)[C@@H]3C[C@@H]4C(=O)N5CCC[C@H]5C(=O)N4[C@@H]3c3cccc(OCCO)c3)cc2)[C@@]12C(=O)Nc1ccc(I)cc12; 2.49
COCCCNC(=O)[C@@]1(Cc2ccccc2CN=[N+]=[N-])N=C(c2ccc(OCCCO)cc2)O[C@H]1c1ccccc1N=[N+]=[N-]; 2.67

Provide composite z-score, tested on Torsin-1A-interacting protein 2 (Homo sapiens), for "O=C(CS)NCCCCCNC(=O)[C@@H]1C[C@@H]2C(=O)N3CCC[C@H]3C(=O)N2[C@@H]1c1ccc(O)cc1" .
2.81

Provide composite z-score, tested on Torsin-1A-interacting protein 2 (Homo sapiens), for CC[C@@H]1[C@@H]2C3C(=O)N(CC)C(=O)C3CC(=O)[C@@H]2[C@H](c2ccc(C)cc2)N1S(=O)(=O)c1ccc(C)cc1 (stereo partly specified) .
3.3

Provide composite z-score, tested on Torsin-1A-interacting protein 2 (Homo sapiens), for "C[N+](C)(C)CCCC[C@@H]1NC(=O)[C@@H]2C[C@H](C(=O)O)[C@H](c3cccc(OCCO)c3)N2C1=O" .
0.423

Provide composite z-score, tested on Torsin-1A-interacting protein 2 (Homo sapiens), for "CC(C)CNC(=O)[C@@]1(C)c2ccccc2C(=O)N(Cc2ccccc2)[C@H]1c1ccc(CO)cc1" .
3.04

* * *

assay: S. pombe growth modifiers, basal conditions – strain 972, OD600, 24 h, no modulator, primary screen (AID 1090);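 note: basal condition with compound alone and no growth modifier present; test concentration not given here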; details: S. pombe 972 growth, higher = more signal, called active from +8 up or from −8 down
Classification field: enter yes (1) for z-score values not below -1, no (0) for values below it.

Completed entries (count: 4):
COc1cc(C(O)C2C=CC3C(=O)NC(=O)C3N2Nc2ccc(Cl)cc2Cl)cc(OC)c1OC (stereo not drawn); no (0)
NC(=O)NCC#Cc1ccc2c(c1)[C@]1(C(=O)N2)[C@H](c2ccc(OCCO)cc2)N2[C@H](c3ccccc3)[C@H](c3ccccc3)OC(=O)[C@H]2[C@@H]1C(=O)N1CCCCCCC1; yes (1)
C=C(/C(=C/C[C@@H](OC(C)=O)c1ccccc1OCCO)c1cnc2ccccc2c1)C(C)C; no (0)
C[C@]12C(=O)N(CCCCCO)[C@@H]3C(=O)N(c4ccc(Cl)cc4)CC=CC31O[C@@H]1/C=C\CCCOC(=O)C12 (stereo partly drawn); no (0)

Hi, just wondering whether O=C1c2ccccc2C(=O)C2CC([C@H]3Oc4ccccc4S(=O)(=O)N4CCC[C@@H]34)=CCC12 (stereo partly drawn) shows z-score of -1 or higher.
yes (1)

Hi, just wondering whether OCCCC1=CC(c2cccs2)N(Cc2cccc(OC(F)(F)F)c2)CC1 (stereo not drawn) shows z-score of -1 or higher.
no (0)

Hi, just wondering whether "CC1=C2[C@@H](CCc3ccccc3)OB(O)C[C@@H]2[C@@H]2C(=O)C=CC(=O)[C@@H]2C1" shows z-score of -1 or higher.
no (0)

Hi, just wondering whether "Cc1ccc(N2C(=O)c3ccccc3[C@](C)(C(=O)NC(C)C)[C@@H]2c2ccc(CO)cc2)nc1" shows z-score of -1 or higher.
no (0)
